This collection of values is drawn from paper PMC3519673.

- Assay overview: In vivo pharmacokinetic experiment in mice
- Experimental parameters: mouse, plasma; male NMRI mice; 1 mg/kg IV
Metric name: clearance (mL/min/kg)
Write the answer as a number in mL/min/kg, unit excluded.

For the compound shown here, C[C@H](NC(=O)C(=O)Nc1ccccc1C(C)(C)C)C(=O)N[C@@H](CC(=O)O)C(=O)COc1c(F)c(F)cc(F)c1F , give the reported clearance.
150

###

- Assay overview: In vivo pharmacokinetic experiment in mice
- Experimental parameters: mouse, plasma; male NMRI mice; 1 mg/kg IV; read-out: AUC (0-inf) iv
Metric name: AUC(0-inf)
Field note: include the unit after the figure.

For the compound shown here, C[C@H](NC(=O)C(=O)Nc1ccccc1C(C)(C)C)C(=O)N[C@@H](CC(=O)O)C(=O)COc1c(F)c(F)cc(F)c1F , give the reported AUC(0-inf).
111 ng·h/mL
